Reported MIC (μg/ml) at 24 hours, MRSA 1 is given for each of the following compounds.
Tested on: MRSA
Assay: Broth microdilution MIC, Example 7 (NCL812 and analogues)
Assay type: cell-based, Staphylococcus aureus
Settings: MRSA 1; 24 hours; duplicate lines per compound
The reply should be a number in µg/mL, with the unit left off.

(Q) # lookup: MIC (μg/ml) at 24 hours, MRSA 1 of C/C(=N\NC(=N)N/N=C(\C)c1ccc(C(F)(F)F)cc1)c1ccc(Cl)cc1.Cl
(A) 8

(Q) Can you handle CC(C)(C)c1ccc(C=NNC(=N)NN=Cc2ccc(C(C)(C)C)cc2)cc1.Cl next?
(A) 8

(Q) Input Cl.N=C(NN=Cc1ccc(O)cc1)NN=Cc1ccc(O)cc1
(A) 64

====

Test system: VRE
Experiment: Broth microdilution MIC, Example 7 (NCL812 and analogues)
Type: cell-based, Enterococcus spp.
Settings: isolate VRE 2; 24 hours; 1st and 2nd replicate rows
Marks after values point to notes of the source that are not given here.
Quantity: MIC (μg/ml) at 24 hours, VRE 2

Answered cases to consult:
# Compound, System Under Test, MIC (μg/ml) at 24 hours, VRE 2
records = [
    ("Cl.N=C(N)N/N=C/c1ccccc1F [NCL016]", "VRE", ">128 µg/mL"),
    ("O=C(N/N=C/c1ccccc1F)N/N=C/c1ccccc1F [NCL005]", "VRE", ">128 µg/mL"),
    ("COc1cccc(/C=N/NC(=O)N/N=C/c2cccc(OC)c2)c1 [NCL010]", "VRE", ">128 µg/mL"),
    ("NC(=O)N/N=C/c1ccccc1C(F)(F)F [NCL060]", "VRE", ">128 µg/mL"),
    ("Cc1ccc(/C=N/NC(=N)N/N=C/c2ccc(C)cc2)cc1.Cl [NCL038]", "VRE", "8** μg/ml"),
]

Now examine the next entry.
(Q) Request body: readout MIC (μg/ml) at 24 hours, VRE 2, system VRE, query Cl.N#Cc1cccc(C=NNC(=N)NN=Cc2cccc(C#N)c2)c1 [NCL026] . Return the value.
(A) >128 µg/mL

====

Listed below: MIC values for each entry.
System: Pseudomonas aeruginosa
Experiment: Broth microdilution MIC, Example 7 (NCL812 and analogues)
Type: cell-based
Conditions: Pseudomonas aeruginosa, 24 h, read-out: MIC (μg/ml) at 24 hours, P. aeruginosa; 24 hours; duplicate lines per compound

Recorded MIC, per entry:
# Molecule, System Under Test, Quantity, Measurement
measured = [
    ("Cl.N=C(N/N=C/c1ccc(Cl)cc1)N/N=C/c1ccc(C(F)(F)F)cc1F [NCL078]", "Pseudomonas aeruginosa", "MIC", "> 128 µg/mL"),
    ("Cl.N=C(N/N=C/c1cc(O)c(O)c(O)c1)N/N=C/c1cc(O)c(O)c(O)c1 [NCL097]", "Pseudomonas aeruginosa", "MIC", "128 µg/mL"),
    ("Cl.N=C(N/N=C/c1ccc(Cl)cc1)N/N=C/c1ccc(Cl)cc1F [NCL084]", "Pseudomonas aeruginosa", "MIC", "> 128 µg/mL"),
    ("Cl.N=C(N/N=C/c1ccc(F)cc1)N/N=C/c1ccc(Cl)cc1 [NCL079]", "Pseudomonas aeruginosa", "MIC", "> 128 µg/mL"),
    ("C/C(=N\\NC(=N)N/N=C/c1ccc(Cl)cc1)c1ccc(C(F)(F)F)cc1.Cl [NCL080]", "Pseudomonas aeruginosa", "MIC", "> 128 µg/mL"),
]

(Q) # input molecule: C/C(=N\NC(=N)N/N=C(\C)c1ccc(C(F)(F)F)cc1)c1ccc(Cl)cc1.Cl [NCL089] ; wanted: its MIC
(A) > 128 µg/mL

====

System: S. pneumoniae isolates
Assay: Disk diffusion susceptibility (CLSI/EUCAST), Example 5
Format: cell-based, Streptococcus pneumoniae
Details: WCH86
Method: Isolate susceptibility to 12 different antimicrobials (Table 16) was determined by CLSI and European Committee on Antimicrobial Susceptibility Testing (EUCAST) methods. Antimicrobials were selected based upon the CLSI and EUCAST guidelines. […] The CFU was calculated and compared to the initial plate counts. […] Zones of complete inhibition were measured in triplicate to the nearest millimeter using a ruler on natural light-reflected growth, and the mode was represented as the diameter for each isolate. […]
Quantity: disk diffusion zone diameter (mm)
Your answer is read as mm, so omit the unit and give the number.

Examples with answers:
# Structure As Smiles, Measurement
records = [
    ("CN[C@H](CC(C)C)C(=O)N[C@H]1C(=O)N[C@@H](CC(N)=O)C(=O)N[C@H]2C(=O)N[C@H]3C(=O)N[C@H](C(=O)N[C@H](C(=O)O)c4cc(O)cc(O)c4-c4cc3ccc4O)[C@H](O)c3ccc(c(Cl)c3)Oc3cc2cc(c3O[C@@H]2O[C@H](CO)[C@@H](O)[C@H](O)[C@H]2O[C@H]2C[C@](C)(N)[C@H](O)[C@H](C)O2)Oc2ccc(cc2Cl)[C@H]1O", 22),
    ("O=C(N[C@H](CO)[C@H](O)c1ccc([N+](=O)[O-])cc1)C(Cl)Cl", 34),
]

(Q) I am curious: what disk diffusion zone diameter value has been reported for CO[C@H]1/C=C/O[C@@]2(C)Oc3c(C)c(O)c4c(O)c(c(/C=N/N5CCN(C)CC5)c(O)c4c3C2=O)NC(=O)/C(C)=C\C=C\[C@H](C)[C@H](O)[C@@H](C)[C@@H](O)[C@@H](C)[C@H](OC(C)=O)[C@@H]1C ?
(A) 31

(Q) One more compound: Cc1onc(-c2ccccc2)c1C(=O)N[C@@H]1C(=O)N2[C@@H]1SC(C)(C)[C@@H]2C(=O)O
(A) 34

(Q) Query CCC[C@@H]1C[C@@H](C(=O)N[C@@H]([C@H]2O[C@H](SC)[C@H](O)[C@@H](O)[C@H]2O)[C@H](C)Cl)N(C)C1 next
(A) 30

(Q) Query CC[C@H]1OC(=O)[C@H](C)[C@@H](O[C@H]2C[C@@](C)(OC)[C@@H](O)[C@H](C)O2)[C@H](C)[C@@H](O[C@@H]2O[C@H](C)C[C@H](N(C)C)[C@H]2O)[C@](C)(OC)C[C@@H](C)C(=O)[C@H](C)[C@@H](O)[C@]1(C)O next
(A) 36

(Q) # iterate: CN(C)[C@@H]1C(O)=C(C(N)=O)C(=O)[C@@]2(O)C(O)=C3C(=O)c4c(O)cccc4[C@@](C)(O)[C@H]3C[C@@H]12
(A) 31

(Q) Entry to check: CC[C@H]1OC(=O)[C@H](C)[C@@H](O[C@H]2C[C@@](C)(OC)[C@@H](O)[C@H](C)O2)[C@H](C)[C@@H](O[C@@H]2O[C@H](C)C[C@H](N(C)C)[C@H]2O)[C@](C)(O)C[C@@H](C)C(=O)[C@H](C)[C@@H](O)[C@]1(C)O
(A) 30

(Q) Next up: CC1(C)S[C@@H]2[C@H](NC(=O)[C@H](N)c3ccccc3)C(=O)N2[C@H]1C(=O)O
(A) 38

====

# MIC (μg/ml) at 24 hours, MRSA 1 per entry
Test system: MRSA
Assay: Broth microdilution MIC, Example 7 (NCL812 and analogues)
Type: cell-based, Staphylococcus aureus
Conditions: MRSA 1; 24 hours; duplicate lines per compound
Procedure: Minimum inhibitory concentrations (μg/ml) were determined using the broth microdilution method recommended by the Clinical and Laboratory Standards Institute (CLSI). MIC breakpoints were determined by visual assessment and then confirmed using an ELISA plate reader, measuring absorbance levels at 600 nm. […] The purity of the isolates was closely monitored during testing by subculturing the prepared bacterial inoculum onto SBA (sheep blood agar). […]

Past entries and their recorded results:
# Molecule, System Under Test, MIC (μg/ml) at 24 hours, MRSA 1
measured = [
    ("Cl.N#Cc1ccc(/C=N/NC(=N)N/N=C/c2ccc(Cl)cc2)cc1 [NCL087]", "MRSA", ">128 µg/mL"),
    ("CC(=NNC(=N)NN=C(C)c1ccccc1)c1ccccc1.Cl [NCL 143]", "MRSA", "16 µg/mL"),
    ("Cl.N=C(NN=C1C(=O)Nc2ccccc21)NN=C1C(=O)Nc2ccccc21 [NCL 163]", "MRSA", ">128 µg/mL"),
    ("CC(C)c1ccc(/C=N/NC(=N)N/N=C/c2ccc(C(C)C)cc2)cc1.Cl [NCL 120]", "MRSA", "8 µg/mL"),
    ("Cl.Cl.Cl.N=C(NN=C(CN)c1ccccc1)NN=C(CN)c1ccccc1 [NCL 165]", "MRSA", ">128 µg/mL"),
    ("CC(=NNC(=N)NN=C(C)c1ccc(Cl)cc1N)c1ccc(Cl)cc1N.Cl [NCL 164]", "MRSA", ">128 µg/mL"),
]

(Q) Name the recorded MIC (μg/ml) at 24 hours, MRSA 1 for C/C(=N\NC(=N)N/N=C/c1ccc(C(F)(F)F)cc1)c1ccc(C(F)(F)F)cc1.Cl [NCL075] .
(A) >128 µg/mL

(Q) Note, next up: Cl.N=C(NN=C(c1ccc(Cl)cc1O)C1CCCC1)NN=C(c1ccc(Cl)cc1O)C1CCCC1 [NCL 159]
(A) 64 µg/mL

(Q) # iterate: Cl.N=C(NN=C(C(=O)O)c1ccccc1)NN=C(C(=O)O)c1ccccc1 [NCL 167]
(A) >128 µg/mL
